The measured values listed here are drawn from ChEMBL document CHEMBL1150485.

species on record: Bos taurus; test: Binding affinity on adrenal cortex microsomes
measurement_kind: pKd
Keep in mind that pKd stands for -log10 of concentration in molar terms.

O=P(O)(O)O[C@@H]1[C@H](O)[C@H](O)[C@@H](OP(=O)(O)O)[C@H](OP(=O)(O)O)[C@H]1O [INS(1,4,5)P3]: 8.00

Consider the molecule shown here: O=P(O)(O)O[C@@H]1CC[C@@H](OP(=O)(O)O)[C@H](OP(=O)(O)O)C1 What is its recorded pKd?
5.40

What value of measured pKd is listed for O=P(O)(O)O[C@@H]1[C@H](O)[C@H](O)[C@@H](OP(=O)(O)O)[C@H](OP(=O)(O)O)[C@H]1F ?
5.80
